B1: E3 ubiquitin-protein ligase Midline-1, residues 172 to 214; numbered along this chain, O15344 (parent)
chain: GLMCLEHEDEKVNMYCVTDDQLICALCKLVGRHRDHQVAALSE

# Variants of: B1
# assaySummary: abundance fitness (aPCA) (normalised: wild type 0, dead -1); higher = more abundant; growth selection in yeast, the domain comes from the species named
# protocolConditions: Homo sapiens
Please mark yes (1) if the recorded abundance fitness is equal to or greater than -0.1, and no (0) if it falls below.

orderedResidues	group
GLMCLEHEDEKVNMYCVTDDQLICALCNLVGRHRDHQVAALSE [K28N]	yes (1)
GLMCLEHEDEKVNMYCVTDDQLICALCKLVGRHRDVQVAALSE [H36V]	no (0)
GLMCLEHEDEKVNMYCVTDDQKICALCKLVGRHRDHQVAALSE [L22K]	yes (1)
GLMCLEHEDEKVNMYCVTDDQLICALCILVGRHRDHQVAALSE [K28I]	yes (1)
GLMCLEHEDEKVNMYCVTDDQLICALCKLVGRHRDHQVAHLSE [A40H]	no (0)
GLMCLEHEDEKVNMYCWTDDQLICALCKLVGRHRDHQVAALSE [V17W]	no (0)
DLMCLEHEDEKVNMYCVTDDQLICALCKLVGRHRDHQVAALSE [G1D]	yes (1)
GLMCLEHEDEKVNMYCVTDCQLICALCKLVGRHRDHQVAALSE [D20C]	no (0)
GLMCLEHEDEKVNMYCVTDDQLICALCKLVGRGRDHQVAALSE [H33G]	no (0)
GLMCLEHEDEKVNMYCVTDDQLICALCKIVGRHRDHQVAALSE [L29I]	no (0)
GLMCLEHEDEKVNMYQVTDDQLICALCKLVGRHRDHQVAALSE [C16Q]	no (0)
GLMCWEHEDEKVNMYCVTDDQLICALCKLVGRHRDHQVAALSE [L5W]	no (0)
GLMCLEHEPEKVNMYCVTDDQLICALCKLVGRHRDHQVAALSE [D9P]	yes (1)
GLMELEHEDEKVNMYCVTDDQLICALCKLVGRHRDHQVAALSE [C4E]	no (0)
GLMCLEHQDEKVNMYCVTDDQLICALCKLVGRHRDHQVAALSE [E8Q]	yes (1)
GLMCLEHEDEKVNMYCVTDDQLICALCKLVGRHRDHQVAALNE [S42N]	yes (1)
GLMCDEHEDEKVNMYCVTDDQLICALCKLVGRHRDHQVAALSE [L5D]	yes (1)
GLMCLEHEDEKVNMYCVNDDQLICALCKLVGRHRDHQVAALSE [T18N]	yes (1)
GLMCLEHEDEKVNMYCVTDDQLICALCKLVGRHRFHQVAALSE [D35F]	no (0)
GLMCLEHEDEKVNMYCVTDDQLICWLCKLVGRHRDHQVAALSE [A25W]	no (0)
GLMCLEHEDEKVNMYCVTDDQLCCALCKLVGRHRDHQVAALSE [I23C]	yes (1)
GLMCLEHEDEKVNMYCVTDAQLICALCKLVGRHRDHQVAALSE [D20A]	no (0)
